Hello, the source for this data is ChEMBL document CHEMBL1133168, in case you need it.

Target: Kynurenine 3-monooxygenase (Rattus norvegicus, UniProt O88867)
Sequence (O88867 whole entry): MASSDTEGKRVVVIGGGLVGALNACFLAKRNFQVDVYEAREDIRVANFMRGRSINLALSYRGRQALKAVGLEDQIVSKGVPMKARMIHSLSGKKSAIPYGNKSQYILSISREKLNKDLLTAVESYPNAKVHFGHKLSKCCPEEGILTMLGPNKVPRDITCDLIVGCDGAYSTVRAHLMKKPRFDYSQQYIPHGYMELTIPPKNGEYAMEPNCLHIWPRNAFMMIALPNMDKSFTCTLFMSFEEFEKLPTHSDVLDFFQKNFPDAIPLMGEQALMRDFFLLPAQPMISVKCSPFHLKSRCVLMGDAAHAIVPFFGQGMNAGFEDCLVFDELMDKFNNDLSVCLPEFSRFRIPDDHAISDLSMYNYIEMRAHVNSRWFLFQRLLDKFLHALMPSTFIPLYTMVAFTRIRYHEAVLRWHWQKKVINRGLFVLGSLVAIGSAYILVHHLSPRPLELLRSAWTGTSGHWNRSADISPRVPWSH
Experiment: Inhibition of Kynurenine-3-hydroxylase enzyme isolated from the rat liver
pIC50: −log10 of the molar value.
Criterion: pIC50 meeting or surpassing 6. Met: YES. Not met: NO.

Below, 6 compounds whose answers are already recorded.
chemical structure: COC(=O)C(=O)/C=C(\O)c1cccc(Cl)c1
class assignment: NO
//
chemical structure: COC(=O)C(=O)/C=C(\O)c1ccc(F)c(Cl)c1
class assignment: NO
//
chemical structure: COC(=O)C(=O)/C=C(\O)c1cccc(Br)c1
class assignment: NO
//
chemical structure: COC(=O)C(=O)/C=C(\O)c1ccc(F)c(F)c1
class assignment: NO
//
chemical structure: COC(=O)C(=O)/C=C(\O)c1cccc(F)c1
class assignment: NO
//
chemical structure: O=C(O)C(=O)/C=C(\O)c1cccc(Cl)c1
class assignment: YES

Dear colleague, could you confirm whether COC(=O)C(=O)/C=C(\O)c1ccc(Cl)c([N+](=O)[O-])c1 has pIC50 at or above 6?
NO

Please check the record O=C(O)C(=O)/C=C(\O)c1cccc(F)c1 and state if its pIC50 is at or above 6.
YES

Hi, just wondering whether COC(=O)C(=O)/C=C(\O)c1ccc(Br)cc1 shows pIC50 of 6 or higher.
NO
